The binders listed here are annotated with their pKd.
Target: human complement factor D (CFD) (Homo sapiens, UniProt P00746)
Assay: SPR
pKd: −log10 of the molar value.
reported endpoint: pKd

>>> measurement("AFD.v5 (Fab, V domains shown) VH: EVQLVQSGPELKKPGASVKVSCKASGYTFTNYGMNWVRQAPGQGLEWMGWINTYTGETTYADDFKGRFVFSLDTSVSTAYLQISSLKAEDTAVYYCEREGGVNNWGQGTLVTVSS VL: DIQVTQSPSSLSASVGDRVTITCITSTSIDSSMNWYQQKPGKVPKLLISGGNTLRPGVPSRFSGSGSGTDFTLTISSLQPEDVATYYCLQSDSLPYTFGQGTKVEIK")
9.55
>>> measurement("AFD.v9 (Fab, V domains shown) VH: EVQLVQSGPELKKPGASVKVSCKASGYTFTNYGMNWVRQAPGQGLEWMGWINTYTGETTYAEDFKGRFVFSLDTSVSTAYLQISSLKAEDTAVYYCEREGGVNNWGQGTLVTVSS VL: DIQVTQSPSSLSASVGDRVTITCITSTSIESDMSWYQQKPGKVPKLLISGGNTLRPGVPSRFSGSGSGTDFTLTISSLQPEDVATYYCLQSDSLPYTFGQGTKVEIK")
10.52
>>> measurement("AFD.v14 (Fab, V domains shown) VH: EVQLVQSGPELKKPGASVKVSCKASGYTFTNYGMNWVRQAPGQGLEWMGWINTYTGETTYAEDFKGRFVFSLDTSVSTAYLQISSLKAEDTAVYYCEREGGVSNWGQGTLVTVSS VL: DIQVTQSPSSLSASVGDRVTITCITSTSIESDMNWYQQKPGKVPKLLISGGNTLRPGVPSRFSGSGSGTDFTLTISSLQPEDVATYYCLQSDSLPYTFGQGTKVEIK")
10.59
>>> measurement("AFD.v8 (Fab, V domains shown) VH: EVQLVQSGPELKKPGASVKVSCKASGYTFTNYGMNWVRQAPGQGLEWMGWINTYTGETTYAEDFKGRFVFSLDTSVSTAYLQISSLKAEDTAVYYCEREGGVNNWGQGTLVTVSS VL: DIQVTQSPSSLSASVGDRVTITCITSTSIESDMNWYQQKPGKVPKLLISGGNTLRPGVPSRFSGSGSGTDFTLTISSLQPEDVATYYCLQSDSLPYTFGQGTKVEIK")
10.78
>>> measurement("AFD.v4 (Fab, V domains shown) VH: EVQLVQSGPELKKPGASVKVSCKASGYTFTNYGMNWVRQAPGQGLEWMGWINTYTGETTYADDFKGRFVFSLDTSVSTAYLQISSLKAEDTAVYYCEREGGVNNWGQGTLVTVSS VL: DIQVTQSPSSLSASVGDRVTITCITSTDIDDSMNWYQQKPGKVPKLLISGGNTLRPGVPSRFSGSGSGTDFTLTISSLQPEDVATYYCLQSDSLPYTFGQGTKVEIK")
10.59

Entry source: paper PMC5680807
